- Target Under Test: Collagenase 3 (Homo sapiens)
- Experiment Description: Inhibition of MMP13-mediated collagen degradation by SDS-PAGE
Quantity: pIC50
Give bare numbers, as −log10 of the molar value.

Provide pIC50 for all items below, preserving their order.
1. CC(C)CN(CC(=O)NO)S(=O)(=O)c1ccc(-c2ccccc2)cc1
2. CC(C)ON(CC(=O)NO)S(=O)(=O)c1ccc(-c2ccccc2)cc1
3. CC(C)ON([C@@H](C(=O)NO)C(C)C)S(=O)(=O)c1ccc(-c2ccc(OCc3ccc(Cl)cc3)cc2)cc1
4. O=C(CNS(=O)(=O)c1ccc(-c2ccccc2)cc1)NO

Reply:
1: 8.03; 2: 7.60; 3: 8.85; 4: 8.62

###

pIC50, Stromelysin-1 (Homo sapiens, UniProt P08254): measured values
One number for each entry, as −log10 of the molar value.

Before answering, review these 9 worked examples.
smiles_repr=CC(C)ON(CC(=O)NO)S(=O)(=O)c1ccc(-c2ccc(F)cc2)s1 target_under_test="Stromelysin-1 (Homo sapiens, UniProt P08254)" quantity=pIC50 value=5.04
smiles_repr=CC(C)ON([C@@H](C(=O)NO)C(C)C)S(=O)(=O)c1ccc(-c2ccc(OCc3ccc(Cl)cc3)cc2)cc1 target_under_test="Stromelysin-1 (Homo sapiens, UniProt P08254)" quantity=pIC50 value=6.74
smiles_repr=CC(C)ON(CC(=O)NO)S(=O)(=O)c1ccc(/C=C/c2ccc(-c3ccccc3)cc2)cc1 target_under_test="Stromelysin-1 (Homo sapiens, UniProt P08254)" quantity=pIC50 value=6.15
smiles_repr=CC(C)ON(CC(=O)NO)S(=O)(=O)c1ccc(Oc2ccccc2)cc1 target_under_test="Stromelysin-1 (Homo sapiens, UniProt P08254)" quantity=pIC50 value=5.92
smiles_repr=COc1ccc(-c2ccc(S(=O)(=O)N(CC(=O)NO)OC(C)C)s2)cc1 target_under_test="Stromelysin-1 (Homo sapiens, UniProt P08254)" quantity=pIC50 value=5.92
smiles_repr=O=C(CNS(=O)(=O)c1ccc(-c2ccccc2)cc1)NO target_under_test="Stromelysin-1 (Homo sapiens, UniProt P08254)" quantity=pIC50 value=6.49
smiles_repr=CCCCOc1ccc(-c2ccc(S(=O)(=O)N(CC(=O)NO)OC(C)C)cc2)cc1 target_under_test="Stromelysin-1 (Homo sapiens, UniProt P08254)" quantity=pIC50 value=5.80
smiles_repr=CCCCc1ccc(C#Cc2ccc(S(=O)(=O)N(CC(=O)NO)OC(C)C)s2)cc1 target_under_test="Stromelysin-1 (Homo sapiens, UniProt P08254)" quantity=pIC50 value=5.37
smiles_repr=CCc1ccc(-c2ccc(S(=O)(=O)N(CC(=O)NO)OC(C)C)s2)cc1 target_under_test="Stromelysin-1 (Homo sapiens, UniProt P08254)" quantity=pIC50 value=5.37

"CSc1ccc(-c2ccc(S(=O)(=O)N(CC(=O)NO)OC(C)C)cc2)cc1" has a reported pIC50 of 5.89

###

A short record of IC50 observed with 72 kDa type IV collagenase (Homo sapiens, UniProt P08253) follows.
Sequence (P08253 whole entry): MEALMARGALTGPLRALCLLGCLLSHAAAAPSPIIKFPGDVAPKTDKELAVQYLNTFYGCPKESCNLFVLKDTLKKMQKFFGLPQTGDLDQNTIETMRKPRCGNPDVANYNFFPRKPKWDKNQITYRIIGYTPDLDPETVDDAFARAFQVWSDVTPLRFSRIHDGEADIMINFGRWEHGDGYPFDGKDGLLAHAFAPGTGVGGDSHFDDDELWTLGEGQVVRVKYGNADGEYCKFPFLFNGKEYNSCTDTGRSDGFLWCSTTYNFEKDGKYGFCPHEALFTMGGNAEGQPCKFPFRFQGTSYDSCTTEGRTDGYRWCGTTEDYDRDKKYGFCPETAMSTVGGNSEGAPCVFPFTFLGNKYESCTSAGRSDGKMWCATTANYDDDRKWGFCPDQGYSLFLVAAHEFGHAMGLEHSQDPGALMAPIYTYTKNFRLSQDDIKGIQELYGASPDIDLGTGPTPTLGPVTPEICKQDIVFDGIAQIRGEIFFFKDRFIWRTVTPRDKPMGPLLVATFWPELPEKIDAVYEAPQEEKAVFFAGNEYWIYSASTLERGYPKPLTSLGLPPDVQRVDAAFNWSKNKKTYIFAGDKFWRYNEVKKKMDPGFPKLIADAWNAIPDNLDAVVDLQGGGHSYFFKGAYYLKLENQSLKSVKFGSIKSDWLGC
Give bare numbers, in nM.

Answered examples (3):
smiles_repr=CSc1ccc(-c2ccc(S(=O)(=O)N(CC(=O)NO)OC(C)C)cc2)cc1 quantity=IC50 value=1.5
smiles_repr=COc1ccc(-c2ccc(S(=O)(=O)N(CC(=O)NO)OC(C)C)s2)cc1 quantity=IC50 value=17
smiles_repr=CCCCc1ccc(C#Cc2ccc(S(=O)(=O)N(CC(=O)NO)OC(C)C)s2)cc1 quantity=IC50 value=360

Value sought for every listed compound: IC50.
1. CC(C)ON([C@@H](C(=O)NO)C(C)C)S(=O)(=O)c1ccc(-c2ccc(OCc3ccc(Cl)cc3)cc2)cc1
2. CC(C)CN(CC(=O)NO)S(=O)(=O)c1ccc(-c2ccccc2)cc1
3. CC(C)ON(CC(=O)NO)S(=O)(=O)c1ccc(-c2ccc(F)cc2)s1

Reply:
1: 9.6; 2: 12; 3: 310

###

Let's go through some pKi measurements on Collagenase 3 (Homo sapiens, UniProt P45452) together.
Give bare numbers, as −log10 of the molar value.

smiles_repr=CC(C)ON(CC(=O)NO)S(=O)(=O)c1ccc(-c2ccccc2)cc1 quantity=pKi value=7.70

Looking up "CC(C)ON([C@@H](C(=O)NO)C(C)C)S(=O)(=O)c1ccc(-c2ccc(OCc3ccc(Cl)cc3)cc2)cc1" , I found its pKi recorded as 7.54

###

Assign pIC50 to each entry below.
- Target Under Test: UniProt P03956
- Sequence (P03956 whole entry): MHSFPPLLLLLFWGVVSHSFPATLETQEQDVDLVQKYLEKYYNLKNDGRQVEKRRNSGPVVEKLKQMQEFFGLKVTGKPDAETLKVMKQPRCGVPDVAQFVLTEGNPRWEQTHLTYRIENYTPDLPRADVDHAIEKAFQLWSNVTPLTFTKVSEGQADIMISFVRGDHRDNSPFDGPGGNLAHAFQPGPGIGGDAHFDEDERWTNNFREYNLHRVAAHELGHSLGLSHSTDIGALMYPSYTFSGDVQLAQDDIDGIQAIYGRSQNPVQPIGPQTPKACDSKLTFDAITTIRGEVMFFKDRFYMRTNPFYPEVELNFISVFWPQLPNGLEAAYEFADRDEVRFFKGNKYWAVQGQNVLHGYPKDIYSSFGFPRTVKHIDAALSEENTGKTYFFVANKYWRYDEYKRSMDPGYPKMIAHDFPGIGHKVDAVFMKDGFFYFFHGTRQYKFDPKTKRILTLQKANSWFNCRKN
- Experiment Description: Inhibition of MMP1
One number for each entry, as −log10 of the molar value.

A selection of reference data follows.
smiles_repr=CSc1ccc(-c2ccc(S(=O)(=O)N(CC(=O)NO)OC(C)C)cc2)cc1 target_under_test="UniProt P03956" quantity=pIC50 value=5.48
smiles_repr=CC(C)ON(CC(=O)NO)S(=O)(=O)c1ccc(/C=C/c2ccc(-c3ccccc3)cc2)cc1 target_under_test="UniProt P03956" quantity=pIC50 value=5.25

# next molecule below
For this molecule ( "CC(C)ON(CC(=O)NO)S(=O)(=O)c1ccc(-c2ccc(F)cc2)s1" ), measured pIC50 is 4.70

###

- Target Under Test: Collagenase 3 (Homo sapiens, UniProt P45452)
- Experiment Description: Inhibition of MMP13
Quantity: pIC50
Numbers only, as −log10 of the molar value.

Worked examples, 3 compounds total:
smiles_repr=CC(C)ON([C@@H](C(=O)NO)C(C)C)S(=O)(=O)c1ccc(-c2ccc(OCc3ccc(Cl)cc3)cc2)cc1 target_under_test="Collagenase 3 (Homo sapiens, UniProt P45452)" value=8.52
smiles_repr=CC(C)CN(CC(=O)NO)S(=O)(=O)c1ccc(-c2ccccc2)cc1 target_under_test="Collagenase 3 (Homo sapiens, UniProt P45452)" value=7.41
smiles_repr=CCCCc1ccc(C#Cc2ccc(S(=O)(=O)N(CC(=O)NO)OC(C)C)s2)cc1 target_under_test="Collagenase 3 (Homo sapiens, UniProt P45452)" value=6.59

Proceed to the following item.
Kindly note the recorded pIC50 for "CC(C)ON(CC(=O)NO)S(=O)(=O)c1ccc(Oc2ccccc2)cc1" , which is 7.20

###

- Target Under Test: Neutrophil collagenase (Homo sapiens)
- Sequence (P22894 whole entry): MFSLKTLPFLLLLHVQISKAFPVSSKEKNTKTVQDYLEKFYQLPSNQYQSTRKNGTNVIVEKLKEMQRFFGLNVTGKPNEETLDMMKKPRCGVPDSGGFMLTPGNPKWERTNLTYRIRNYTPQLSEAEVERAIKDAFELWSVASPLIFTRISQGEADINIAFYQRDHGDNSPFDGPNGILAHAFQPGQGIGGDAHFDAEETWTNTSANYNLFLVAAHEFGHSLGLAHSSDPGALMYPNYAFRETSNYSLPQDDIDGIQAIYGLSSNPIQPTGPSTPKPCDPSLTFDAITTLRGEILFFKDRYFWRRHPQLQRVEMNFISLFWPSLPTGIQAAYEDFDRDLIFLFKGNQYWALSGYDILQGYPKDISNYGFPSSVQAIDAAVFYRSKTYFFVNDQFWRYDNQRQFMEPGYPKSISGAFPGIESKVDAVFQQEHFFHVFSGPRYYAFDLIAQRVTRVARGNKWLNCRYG
- Experiment Description: Inhibition of MMP8
Quantity: IC50 (nM)
Give bare numbers, in nM.

# batch: return IC50 for each of the 2 molecules below
1. CCc1ccc(-c2ccc(S(=O)(=O)N(CC(=O)NO)OC(C)C)s2)cc1
2. CCCCOc1ccc(-c2ccc(S(=O)(=O)N(CC(=O)NO)OC(C)C)cc2)cc1

Reply:
1: 140; 2: 560

Each of the following entries comes with a recorded value; kindly state IC50 for each.
1. CC(C)ON(CC(=O)NO)S(=O)(=O)c1ccc(/C=C/c2ccc(-c3ccccc3)cc2)cc1
2. CCCCc1ccc(C#Cc2ccc(S(=O)(=O)N(CC(=O)NO)OC(C)C)s2)cc1
3. CSc1ccc(-c2ccc(S(=O)(=O)N(CC(=O)NO)OC(C)C)cc2)cc1

Reply:
1: 3600; 2: 7600; 3: 37

###

- Target Under Test: Neutrophil collagenase (Homo sapiens)
- Experiment Description: Inhibition of MMP8
Quantity: pIC50
Answers are plain numbers, as −log10 of the molar value.

Below is a list of compounds. For each, state its recorded pIC50.
1. CC(C)ON(CC(=O)NO)S(=O)(=O)c1ccc(-c2ccccc2)cc1
2. COc1ccc(-c2ccc(S(=O)(=O)N(CC(=O)NO)OC(C)C)cc2)cc1
3. CC(C)ON(CC(=O)NO)S(=O)(=O)c1ccc(-c2ccc(OCc3ccc(Cl)cc3)cc2)cc1

Reply:
6.59
7.19
5.77

###

- Target Under Test: Collagenase 3 (Homo sapiens, UniProt P45452)
- Experiment Description: Inhibition of MMP13
Binary label based on IC50 with cut-off 20 nM: below gives 1 (yes), not below gives 0 (no).

smiles_repr=CSc1ccc(-c2ccc(S(=O)(=O)N(CC(=O)NO)OC(C)C)cc2)cc1 label_value="1 (yes)"
smiles_repr=COc1ccc(-c2ccc(S(=O)(=O)N(CC(=O)NO)OC(C)C)s2)cc1 label_value="0 (no)"
smiles_repr=CCCCOc1ccc(-c2ccc(S(=O)(=O)N(CC(=O)NO)OC(C)C)cc2)cc1 label_value="1 (yes)"
smiles_repr=CC(C)ON(CC(=O)NO)S(=O)(=O)c1ccc(-c2ccc(OCc3ccc(Cl)cc3)cc2)cc1 label_value="1 (yes)"
smiles_repr=CC(C)ON(CC(=O)NO)S(=O)(=O)c1ccc(-c2ccccc2)cc1 label_value="0 (no)"
smiles_repr=CC(C)ON(CC(=O)NO)S(=O)(=O)c1ccc(/C=C/c2ccc(-c3ccccc3)cc2)cc1 label_value="0 (no)"
smiles_repr=O=C(CNS(=O)(=O)c1ccc(-c2ccccc2)cc1)NO label_value="1 (yes)"
smiles_repr=COc1ccc(-c2ccc(S(=O)(=O)N(CC(=O)NO)OC(C)C)cc2)cc1 label_value="1 (yes)"

Task item: For "CCc1ccc(-c2ccc(S(=O)(=O)N(CC(=O)NO)OC(C)C)s2)cc1" , is the recorded IC50 below the cut-off of 20 nM?
Reply: 0 (no)

Task item: Decide: IC50 of "CC(C)ON(CC(=O)NO)S(=O)(=O)c1ccc(-c2ccc(F)cc2)s1" strictly below 20 nM?
Reply: 0 (no)

Provenance of the data: ChEMBL document CHEMBL1158483
